target: HLA B*1501 (Homo sapiens, UniProt P01889, A329T/A93T/A95T/C349S/D201E/D98Y/E187L/E204Q/E69M/E70A/K202T/N87E/Q94N/R155S/R180W/S121R/S35A/S48A/V306I/V36M/Y140S/Y91S); assay: biochemical
Where a SMILES comes first, the peptide text is derived from it.
Measurement type: IC50 (nM)
# value in nM; strip the unit string

Some compounds with known IC50 results, for comparison:
- Compound: "CC(C)C[C@H](NC(=O)[C@@H](N)CC(C)C)C(=O)N[C@@H](Cc1ccccc1)C(=O)N[C@@H](Cc1ccc(O)cc1)C(=O)N[C@H](C(=O)N[C@@H](CCCNC(=N)N)C(=O)N[C@@H](Cc1c[nH]cn1)C(=O)N[C@@H](CCCNC(=N)N)C(=O)N[C@@H](Cc1ccccc1)C(=O)O)[C@@H](C)O [3102.1058] (H-LLFYTRHRF-OH)"
  Measurement type: "IC50"
  Unit of measure: "nM"
  Value measured: 0.85
- Compound: "CSCC[C@H](NC(=O)[C@@H](N)C(C)C)C(=O)N[C@H](C(=O)N[C@H](C(=O)N[C@@H](CO)C(=O)N[C@@H](CCCCN)C(=O)N1CCC[C@H]1C(=O)N[C@@H](CC(C)C)C(=O)N[C@@H](Cc1ccccc1)C(=O)O)[C@@H](C)O)C(C)C [3102.1148] (H-VMVTSKPLF-OH)"
  Measurement type: "IC50"
  Unit of measure: "nM"
  Value measured: 16
- Compound: "CC[C@H](C)[C@H](NC(=O)[C@H](CC(N)=O)NC(=O)[C@H](C)NC(=O)[C@@H](NC(=O)[C@@H](N)CC(C)C)[C@@H](C)CC)C(=O)N[C@@H](Cc1c[nH]cn1)C(=O)N[C@@H](CC(N)=O)C(=O)N[C@@H](Cc1c[nH]cn1)C(=O)N[C@@H](CCSC)C(=O)O [3102.1046] (H-LIANIHNHM-OH)"
  Measurement type: "IC50"
  Unit of measure: "nM"
  Value measured: 0.67
- Compound: "CSCC[C@H](NC(=O)[C@H](CCC(=O)O)NC(=O)[C@H](C)NC(=O)[C@H](CC(N)=O)NC(=O)[C@H](CCC(=O)O)NC(=O)[C@H](CCCCN)NC(=O)[C@H](CC(N)=O)NC(=O)[C@H](CCSC)NC(=O)[C@@H](N)CC(C)C)C(=O)O [3102.0802] (H-LMNKENAEM-OH)"
  Measurement type: "IC50"
  Unit of measure: "nM"
  Value measured: 7.7
- Compound: "CC(C)C[C@H](NC(=O)[C@@H](N)CCCNC(=N)N)C(=O)N[C@@H](Cc1ccccc1)C(=O)N[C@@H](Cc1ccc(O)cc1)C(=O)N[C@H](C(=O)N[C@@H](Cc1ccccc1)C(=O)N[C@@H](Cc1ccccc1)C(=O)N[C@@H](CO)C(=O)N[C@@H](Cc1ccc(O)cc1)C(=O)O)[C@@H](C)O [3102.0803] (H-RLFYTFFSY-OH)"
  Measurement type: "IC50"
  Unit of measure: "nM"
  Value measured: 0.37
- Compound: "CC(C)C[C@H](NC(=O)[C@H](CO)NC(=O)[C@H](CCCCN)NC(=O)[C@H](CC(C)C)NC(=O)[C@@H](N)CO)C(=O)N[C@@H](Cc1ccc(O)cc1)C(=O)N[C@@H](CCC(=O)O)C(=O)N[C@@H](C)C(=O)N[C@@H](Cc1ccccc1)C(=O)O [3102.0923] (H-SLKSLYEAF-OH)"
  Measurement type: "IC50"
  Unit of measure: "nM"
  Value measured: 20
- Compound: "CC(C)[C@H](NC(=O)[C@H](Cc1ccccc1)NC(=O)[C@H](CC(=O)O)NC(=O)[C@H](CC(N)=O)NC(=O)[C@H](CCCCN)NC(=O)[C@@H]1CCCN1C(=O)[C@@H](N)Cc1ccccc1)C(=O)N[C@@H](CO)C(=O)N[C@@H](Cc1ccccc1)C(=O)O [3102.0637] (H-FPKNDFVSF-OH)"
  Measurement type: "IC50"
  Unit of measure: "nM"
  Value measured: 10
- Compound: "CC(C)C[C@H](NC(=O)[C@@H]1CCCN1C(=O)[C@H](CC(N)=O)NC(=O)[C@H](C)NC(=O)[C@@H](N)Cc1ccccc1)C(=O)N[C@@H](CO)C(=O)N[C@@H](CC(N)=O)C(=O)N1CCC[C@H]1C(=O)N[C@@H](Cc1ccccc1)C(=O)O [3102.1245] (H-FANPLSNPF-OH)"
  Measurement type: "IC50"
  Unit of measure: "nM"
  Value measured: 1.7

# get_value(readout='IC50', item= CC[C@H](C)[C@H](NC(=O)[C@H](CO)NC(=O)[C@@H](N)CCSC)C(=O)N[C@@H](CC(=O)O)C(=O)N[C@@H](Cc1c[nH]cn1)C(=O)N[C@@H](CS)C(=O)N[C@@H](CO)C(=O)N[C@@H](CO)C(=O)N[C@@H](Cc1ccccc1)C(=O)O [3102.0989] (H-MSIDHCSSF-OH) )
0.95

Proceed to CC[C@H](C)[C@H](NC(=O)[C@@H](N)CO)C(=O)N[C@@H](CCCCN)C(=O)N[C@@H](CC(N)=O)C(=O)N[C@@H](CC(C)C)C(=O)N[C@H](C(=O)N[C@@H](CO)C(=O)N[C@@H](CCC(N)=O)C(=O)N[C@@H](Cc1ccccc1)C(=O)O)C(C)C [3102.0951] (H-SIKNLVSQF-OH)
25

Continue with CC[C@H](C)[C@H](NC(=O)[C@@H](NC(=O)[C@@H](NC(=O)[C@H](C)NC(=O)[C@H](CCSC)NC(=O)[C@@H](N)Cc1ccc(O)cc1)[C@@H](C)O)[C@@H](C)O)C(=O)N[C@@H](CC(C)C)C(=O)N[C@@H](CCC(=O)O)C(=O)N[C@@H](CCSC)C(=O)O [3102.0830] (H-YMATTILEM-OH)
2.2

# iterate: CC[C@H](C)[C@H](NC(=O)CN)C(=O)N[C@@H](CC(N)=O)C(=O)N[C@@H](CCCCN)C(=O)N[C@@H](CCCNC(=N)N)C(=O)N[C@@H](CO)C(=O)N[C@H](C(=O)N1CCC[C@H]1C(=O)N[C@@H](Cc1ccccc1)C(=O)O)[C@@H](C)O [3102.0792] (H-GINKRSTPF-OH)
0.72

Would you mind doing CC(C)C[C@H](NC(=O)[C@H](CS)NC(=O)[C@H](CO)NC(=O)[C@H](CCCCN)NC(=O)[C@@H](NC(=O)[C@@H](N)CCCCN)C(C)C)C(=O)N[C@@H](CS)C(=O)N[C@@H](CO)C(=O)N[C@@H](Cc1ccccc1)C(=O)O [3102.0813] (H-KVKSCLCSF-OH) as well?
17
